Data provenance is paper PMC4657098.

testedSystem: α6β3γ2 GABAA/BzR (Homo sapiens, UniProt P18507+Q16445)
assayText: Competition binding to HEK cell membranes, α6β3γ2
Set-up: expressed in transfected cells
experimentalContext: read-out: Ki α6
Kindly state pKi for each of the entries shown.
Reminder that pKi means the negative base-10 logarithm of the concentration expressed in mol/L.

Ask: What value of pKi has been recorded for this entry: CC(C)(C)OC(=O)c1cc2c(cn1)[nH]c1ccc(I)cc12
Result: 6.00

Ask: What value of pKi has been recorded for this entry: CCC(OC(=O)c1ncn2c1C1CCCN1C(=O)c1cc(F)ccc1-2)C(F)(F)F (mixture of isomers)
Result: 6.14

Ask: What value of pKi has been recorded for this entry: O=C(OCC(F)(F)F)c1ncn2c1CN=C(c1ccccc1)c1ccccc1-2
Result: 5.30

Ask: What value of pKi has been recorded for this entry: Cc1nnc2n1-c1ccc(Br)cc1C(c1ccccc1F)=NC2 [JYI-64]
Result: 5.30

Ask: What value of pKi has been recorded for this entry: CC(C)(C)CC(=O)c1cc2c(cn1)[nH]c1ccccc12
Result: 6.00

Ask: What value of pKi has been recorded for this entry: O=[N+]([O-])c1ccc2[nH]c3cnc([N+](=O)[O-])cc3c2c1
Result: 5.30

Ask: What value of pKi has been recorded for this entry: CN1Cc2c(C(=O)OC(C)(C)C)ncn2-c2ccc(C#C[Si](C)(C)C)cc2C1=O
Result: 7.23

Ask: What value of pKi has been recorded for this entry: CC(C)OC(=O)c1ncn2c1[C@@H]1CCCN1C(=O)c1ccccc1-2
Result: 6.68
